I'd appreciate it if you could supply inhibition at 45 µM values for the items below.
Tested on: Clostridioides difficile
Experiment: Antibacterial activity against Clostridium difficile ATTC43255 assessed as spore germination inhibition at 45 uM incubated for 60 mins by spectrometry relative to control
Assay type: functional
Conditions: ATTC43255, 1 h

Completed entries (count: 6):
compound: Nc1c[nH]nc1-c1nc(-c2ccc(Oc3ccc(C(F)(F)F)cc3)cc2)no1
result: < 10%
//
compound: CCOc1ccc(-c2noc(-c3ccc(O)cc3)n2)cc1
result: < 10%
//
compound: FC(F)(F)c1ccc(Oc2ccc(-c3noc(-c4cn[nH]n4)n3)cc2)cc1
result: < 10%
//
compound: COc1ccc(-c2nc(-c3ccc(OC4CCCC4)cc3)no2)cc1
result: < 10%
//
compound: Oc1ccc(-c2nc(-c3ccc(C(O)C(F)(F)F)cc3)no2)cc1 (configuration not stated)
result: < 10%
//
compound: Nc1cc(Oc2ccccc2)ccc1-c1noc(-c2ccc(O)cc2)n1
result: 17%

For every record below, what is its inhibition at 45 µM?
1. Oc1ccc(-c2nc(-c3ccc(Oc4ccc(C(F)(F)F)cc4)cc3)no2)cc1
2. Oc1ccc(-c2nc(-c3ccc(Oc4ccc(C(F)(F)F)cc4)nc3)no2)cc1

1: 14%; 2: < 10%

Give one value of inhibition at 45 µM per listed compound.
1. CS(=O)(=O)Nc1ccc(Cc2noc(-c3ccc4[nH]cc(CCN)c4c3)n2)cc1
2. Oc1ccc(-c2nc(-c3ccc(OC4CCCC4)cc3)no2)cc1
3. Nc1ccc(-c2noc(-c3ccc(O)cc3)n2)cc1
4. CN1CCN(c2ccc(-c3noc(-c4ccc(O)cc4)n3)cc2)CC1
5. CS(=O)(=O)Nc1ccc(-c2nc(-c3ccc(OC4CCCC4)cc3)no2)cc1
6. CCC(C)Nc1c[nH]nc1-c1nc(-c2ccc(Oc3ccc(C(F)(F)F)cc3)cc2)no1 (configuration not stated)

1: < 10%; 2: 26%; 3: < 10%; 4: < 10%; 5: < 10%; 6: < 10%

// for each compound in input: emit inhibition at 45 µM
1. Oc1ccc(-c2noc(-c3ccc(O)cc3)n2)cc1
2. NCc1ccc(-c2nc(-c3ccc(Oc4ccc(F)c(F)c4)cc3)no2)cc1

< 10%
44%

Which measured inhibition at 45 µM value corresponds to NCCCOc1ccc(-c2noc(-c3ccc(O)cc3)n2)cc1 ?
< 10%

----------
System: Clostridioides difficile
Experiment: Antibacterial activity against Clostridium difficile ATTC43255 assessed as spore germination inhibition at 45 uM incubated for 60 mins by spectrometry relative to control
Type: functional
Settings: ATTC43255, 1 h
Can you tell me inhibition at 45 µM for the items I'm about to list?

Quick batch: inhibition at 45 µM for everything below.
1. O=C(Nc1c[nH]nc1-c1nc(-c2ccc(Oc3ccc(C(F)(F)F)cc3)cc2)no1)c1ccccc1
2. CCCOc1ccc(-c2noc(-c3ccc(CN)cc3)n2)cc1
3. O=C1C[C@@H](c2nc(-c3ccc(Oc4ccc(C(F)(F)F)cc4)cc3)no2)CN1
4. FC(F)(F)c1ccc(Oc2ccc(-c3noc(-c4nc[nH]n4)n3)cc2)cc1
5. Nc1ccc(-c2nc(-c3ccc(OC4CCCC4)cc3)no2)cc1

["< 10%", "12%", "< 10%", "< 10%", "< 10%"]

Give measured inhibition at 45 µM for every item shown.
1. CNCc1ccc(-c2nc(-c3ccc(OC4CCCC4)cc3)no2)cc1
2. CC(C)Cc1ccc(-c2nc(-c3ccc(CN4CC(C(=O)O)C4)cc3)no2)cc1
3. FC(F)(F)c1ccc(Oc2ccc(-c3noc(-c4cc5ccccc5[nH]4)n3)cc2)cc1
4. NCc1ccc(-c2nc(-c3ccc(OC4CC4)cc3)no2)cc1

1: 37%; 2: < 10%; 3: < 10%; 4: 12%

Batch request: inhibition at 45 µM for each of the following compounds.
1. O=[N+]([O-])c1cc(Oc2ccc(C(F)(F)F)cc2)cnc1-c1noc(-c2ccc(O)cc2)n1
2. CCCCNc1c[nH]nc1-c1nc(-c2ccc(Oc3ccc(C(F)(F)F)cc3)cc2)no1
3. NCc1ccc(-c2nc(-c3ccc(CN4CCCC4)cc3)no2)cc1

["< 10%", "< 10%", "< 10%"]

Return reported inhibition at 45 µM values for all items listed beneath this line.
1. FC(F)(F)c1ccc(Oc2ccc(-c3noc(-c4ccc5[nH]ccc5c4)n3)cc2)cc1
2. CC(C)Oc1ccc(-c2nc(-c3cccc4c3CC[C@@H]4NCCO)no2)cc1C#N.Cl [OZANIMOD HYDROCHLORIDE]
3. FC(F)(F)c1ccc(Oc2ccc(-c3noc(-c4n[nH]cc4Cl)n3)cc2)cc1

1: < 10%; 2: 62%; 3: < 10%

Report inhibition at 45 µM for NCc1ccc(-c2nc(-c3ccc(OC4CCCC4)cc3)no2)cc1 please.
41%

Values from ChEMBL document CHEMBL6134901
